# Tested on: velvetleaf
# assay: Test B pre-/postemergence herbicide test
# Format: in vivo, Abutilon theophrasti
# conditionInfo: 500 g ai/ha; visual rating, 0 = no effect, 100 = complete control; preemergence
# Experimental: […] At the same time, plants selected from these crop and weed species and also blackgrass (Alopecurus myosuroides Huds.), wheat (Triticum aestivum L.) and wild oat (Avena fatua L.) were treated with postemergence applications of test chemicals formulated in the same manner. […] Treated plants and controls were maintained in a greenhouse for 13 to 15 days, after which time all species were compared to controls and visually evaluated. […]
Recorded measurements of Plant response rating, Velvetleaf, one per entry
Respond numerically, and do not add a unit to the figure.

Reference set, count: 5
structureAsSmiles	measuredAttribute	value
CCNC(=O)c1ccc(F)c(NC(=O)c2c(F)c(C(C)(C)C)nn2CC)c1	Plant response rating, Velvetleaf	0
CCc1nn(C(C)(C)C)cc1C(=O)Nc1ccc(F)c(C(=O)N(C)C)c1	Plant response rating, Velvetleaf	0
CCn1nc(C(C)(C)C)cc1C(=O)Nc1cc(C(=O)OC(C)C)c(F)cc1F	Plant response rating, Velvetleaf	20
CCn1nc(C(C)(C)C)cc1C(=O)Nc1cncc(C(=O)NCC(F)(F)F)n1	Plant response rating, Velvetleaf	0
CCNC(=O)c1cncc(NC(=O)c2cc(C(C)(C)C)nn2CC)n1	Plant response rating, Velvetleaf	0

Please turn your attention to the following entry.
Input: Would you kindly share the measured Plant response rating, Velvetleaf for "CCn1nc(C(C)(C)C)cc1C(=O)Nc1cccc(OC(C)C)c1" ?
Output: 40

* * *

# System: pigweed
# assay: Test B pre-/postemergence herbicide test
# Assay type: in vivo, Amaranthus retroflexus
# conditionInfo: preemergence, 125 g ai/ha; 0 to 100 scale, 0 is no effect, 100 is complete control
Decide using Plant response rating, Pigweed alone. Strictly below 60: Criterion met. Equal to or above 60: Criterion not met.

structureAsSmiles	class
CCn1nc(C(C)(C)C)cc1C(=O)Nc1cccc(C(=O)OC)c1	Criterion met
CCn1nc(C(C)(C)C)cc1C(=O)Nc1cccc(C(=O)NOC)c1	Criterion met
CCCCn1nc(C(C)(C)C)cc1C(=O)Nc1cccc(C(=O)N(CC)CC)c1	Criterion met
CCNC(=O)c1cc(C)cc(NC(=O)c2cc(C(C)(C)C)nn2CC)n1	Criterion not met
CCN(CC)C(=O)c1cccc(NC(=O)c2cc(C(C)(C)C)nn2CC)n1	Criterion not met

Input: Consider the compound "CCn1nc(C(C)(C)C)cc1C(=O)Nc1cccc(C(=O)N(C)CC#N)n1" . Is its Plant response rating, Pigweed strictly less than 60?
Output: Criterion not met

Input: Threshold test, Plant response rating, Pigweed < 60: "CCn1nc(C(C)(C)C)cc1C(=O)Nc1cc(C(=O)OC(C)C)c(OC)cc1F"
Output: Criterion not met

* * *

# System: giant foxtail
# assay: Test A pre-/postemergence herbicide test
# Format: in vivo, Setaria faberi
# conditionInfo: Postemergence, 2000 g ai/ha; 0 to 100 scale, 0 no effect, 100 complete control
# Plant response rating, Foxtail, Giant listing for each entry below
Write the value as a bare number.

structureAsSmiles	systemUnderTest	Plant response rating, Foxtail, Giant
CCn1nc(C(C)(C)C)cc1C(=O)Nc1cncc(C(=O)N(C)C)n1	giant foxtail	90

Input: Look at this compound and give its reported Plant response rating, Foxtail, Giant. "CCn1nc(C(C)(C)C)cc1C(=O)Nc1ccnc(C(=O)NCCF)c1"
Output: 35

Input: Any idea what its Plant response rating, Foxtail, Giant is? The compound is "CCn1nc(C(C)(C)C)cc1C(=O)Nc1cccc(C(=O)OCC2CC2)c1C"
Output: 10

Input: Recorded Plant response rating, Foxtail, Giant of "CCn1nc(C(C)(C)C)cc1C(=O)Nc1cccc(C(C)=NO)c1" , please.
Output: 100

Input: Suppose we examine the compound "CCn1nc(C(C)(C)C)cc1C(=O)Nc1cccc(C(=O)N2CC=CC2)c1" ; what Plant response rating, Foxtail, Giant value has been reported?
Output: 75

Input: Field request: Plant response rating, Foxtail, Giant | item: "C#CCNC(=O)c1cccc(NC(=O)c2sc(C(C)(C)C)nc2C)c1"
Output: 20
